Sourced from patent US20260116991A1

- Assayed System: biotinylated labeled human GPC3 protein (produced in-house) (human, UniProt P51654 25-559, limits assumed, biotinylated (Dojindo, Cat. No. LK03); sites not stated)
- Experiment Notes: ELISA, biotinylated human GPC3 protein
I would appreciate it if you labelled entries class 1 when OD450 at 0.53 nM is 1 OD450 or higher, otherwise class 0.

| Binder | Class Assignment |
| --- | --- |
| hAb006LH2L1 (antibody, human IgG1, V domains shown, Humanized F3.38.7; VH H2 + VL L1; expressed as human IgG1) VH: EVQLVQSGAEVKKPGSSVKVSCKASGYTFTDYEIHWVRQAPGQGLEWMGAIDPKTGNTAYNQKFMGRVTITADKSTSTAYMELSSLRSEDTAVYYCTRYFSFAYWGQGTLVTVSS VL: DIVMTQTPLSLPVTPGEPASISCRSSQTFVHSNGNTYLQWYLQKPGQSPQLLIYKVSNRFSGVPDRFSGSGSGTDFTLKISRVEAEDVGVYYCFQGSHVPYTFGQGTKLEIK | class 1 |
| hAb007LH2L1a (antibody, human IgG1, V domains shown, Humanized F3.81.19; VH H2 + VL L1a; expressed as human IgG1) VH: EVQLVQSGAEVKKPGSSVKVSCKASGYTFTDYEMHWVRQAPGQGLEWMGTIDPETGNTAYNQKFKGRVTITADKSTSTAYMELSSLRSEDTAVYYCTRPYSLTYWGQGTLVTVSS VL: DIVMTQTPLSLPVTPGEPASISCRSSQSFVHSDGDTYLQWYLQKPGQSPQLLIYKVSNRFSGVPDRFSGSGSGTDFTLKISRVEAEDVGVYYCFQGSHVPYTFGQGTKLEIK | class 1 |
| hAb006LH1L1 (antibody, human IgG1, V domains shown, Humanized F3.38.7; VH H1 + VL L1; expressed as human IgG1) VH: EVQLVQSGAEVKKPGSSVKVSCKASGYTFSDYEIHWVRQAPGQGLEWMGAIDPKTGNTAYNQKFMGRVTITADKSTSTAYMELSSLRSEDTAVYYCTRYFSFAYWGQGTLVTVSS VL: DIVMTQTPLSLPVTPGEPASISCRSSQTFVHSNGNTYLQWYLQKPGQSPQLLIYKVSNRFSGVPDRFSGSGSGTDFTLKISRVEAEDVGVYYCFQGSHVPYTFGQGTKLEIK | class 1 |
| hAb005LH3L1 (antibody, human IgG1, V domains shown, Humanized F3.54.12; VH H3 + VL L1; expressed as human IgG1) VH: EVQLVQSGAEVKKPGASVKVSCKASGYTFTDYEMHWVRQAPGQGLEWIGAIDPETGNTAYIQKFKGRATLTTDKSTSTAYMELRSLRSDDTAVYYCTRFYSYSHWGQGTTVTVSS VL: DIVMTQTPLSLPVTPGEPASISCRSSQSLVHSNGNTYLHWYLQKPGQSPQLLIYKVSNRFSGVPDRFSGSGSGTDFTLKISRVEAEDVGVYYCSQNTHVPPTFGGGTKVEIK | class 0 |
